Tested on: Plasmodium falciparum
ASSAY: Calibr Malaria Delayed Death Assay SOP
Type: functional, organism-based
Set-up: scale not given: in the data most compounds retested in dose-response had high values
TEST SETTINGS: concentration 4.99e-06 (unit not given; other assays of the set use mol/L)
Out of some 38,000 compounds screened, about 1,200 (3.2%) showed an effect of 50% or more. The median lay at about -58%. This is one part of a sample in which strong results are shown more often than they occur.

COMPOUND: Cc1cc(-c2cnn(CCNC(=O)CCn3cccn3)c2C2CC2)on1
TARGET OF ASSAY: Plasmodium falciparum
UOM: %
Percent Effect: -69.32
--
COMPOUND: CC(C)CC(=O)N1CCC2(CC1)OC(C(N)=O)Cn1ccnc12.O=C(O)C(F)(F)F (stereo not given)
TARGET OF ASSAY: Plasmodium falciparum
UOM: %
Percent Effect: -41.43
--
COMPOUND: O=C(NCC1CC1)c1cc2c(s1)CCN2c1ncccn1
TARGET OF ASSAY: Plasmodium falciparum
UOM: %
Percent Effect: -131.9
--
COMPOUND: Cc1sc2nc(C(F)(F)F)nc(N3CCCN(C)CC3)c2c1C
TARGET OF ASSAY: Plasmodium falciparum
UOM: %
Percent Effect: 75.15
--
COMPOUND: O=C(c1cnc2ccc(Cl)cc2c1NCc1ccco1)N1CCCCC1
TARGET OF ASSAY: Plasmodium falciparum
UOM: %
Percent Effect: -150.7
